Target: acetylcholinesterase (AChE from Electrophorus electricus) (Electrophorus electricus, UniProt O42275)
Construct: purchased Sigma-Aldrich
Experiment: Ellman assay, AChE inhibitory activity
Assay type: biochemical
Conditions: IC50 ± SEM, Ellman's assay, pH 8.0, triplicate
Mark yes (1) only for IC50 values smaller than 10 µM; exact matches and larger values are no (0).

Input line: Quick check: does C=C(C)[C@@H]1CC[C@]2(C(=O)O)CC[C@]3(C)[C@H](CC[C@@H]4[C@@]5(C)[C@@H](C(=O)O)[C@H](O)C(C)(C)[C@@H]5CC[C@]43C)[C@@H]12 have IC50 under 10 µM?
Output line: no (0)

Input line: For C=C(C)[C@@H]1CC[C@]2(C(=O)O)CC[C@]3(C)[C@H](CC[C@@H]4[C@@]5(C)[C@@H](C(=O)O)[C@H](OC(=O)c6ccco6)C(C)(C)[C@@H]5CC[C@]43C)[C@@H]12 then?
Output line: no (0)

Input line: For C=C(C)[C@@H]1CC[C@]2(C(=O)O)CC[C@]3(C)[C@H](CC[C@@H]4[C@@]5(C)[C@@H](C(=O)O)[C@H](OCCCCBr)C(C)(C)[C@@H]5CC[C@]43C)[C@@H]12 then?
Output line: yes (1)

Input line: For C=C(C)[C@@H]1CC[C@]2(C(=O)O)CC[C@]3(C)[C@H](CC[C@@H]4[C@@]5(C)[C@@H](C(=O)O)C(=O)C(C)(C)[C@@H]5CC[C@]43C)[C@@H]12 then?
Output line: yes (1)

Input line: For C=C(C)[C@@H]1CC[C@]2(C(=O)OC)CC[C@]3(C)[C@H](CC[C@@H]4[C@@]5(C)[C@@H](C(=O)OC)[C@H](O)C(C)(C)[C@@H]5CC[C@]43C)[C@@H]12 then?
Output line: no (0)

* * *

Target: acetylcholinesterase (AChE from Electrophorus electricus) (Electrophorus electricus)
Construct: purchased Sigma-Aldrich
Test: Kinetic characterization of AChE inhibition (Lineweaver–Burk)
Type: biochemical
Details: alpha calculated from Lineweaver–Burk plots
Please go through the items and note down their α.
No unit in the answer, only the number.

Input line: Which α reading was recorded for the compound C=C(C)[C@@H]1CC[C@]2(C(=O)O)CC[C@]3(C)[C@H](CC[C@@H]4[C@@]5(C)[C@@H](C(=O)O)[C@H](OCCCCBr)C(C)(C)[C@@H]5CC[C@]43C)[C@@H]12 [Compound 6, 3-(4-Bromobutoxy)-ceanothic Acid] ?
Output line: 0.98

Input line: For C=C(C)[C@@H]1CC[C@]2(C(=O)O)CC[C@]3(C)[C@H](CC[C@@H]4[C@@]5(C)[C@@H](C(=O)O)[C@H](OC(=O)c6ccco6)C(C)(C)[C@@H]5CC[C@]43C)[C@@H]12 [Compound 7, 3-O-Furoyl-ceanothic Acid] then?
Output line: 10.39

Input line: For C=C(C)[C@@H]1CC[C@]2(C(=O)O)CC[C@]3(C)[C@H](CC[C@@H]4[C@@]5(C)[C@@H](C(=O)O)C(=O)C(C)(C)[C@@H]5CC[C@]43C)[C@@H]12 [Compound 2, 3-oxo-Ceanothic Acid] then?
Output line: 1.01

Input line: For C=C(C)[C@@H]1CC[C@]2(C(=O)OC)CC[C@]3(C)[C@H](CC[C@@H]4[C@@]5(C)[C@@H](C(=O)OC)[C@H](O)C(C)(C)[C@@H]5CC[C@]43C)[C@@H]12 [Compound 3, Ceanothic 2, 28-Dimethyl Ester] then?
Output line: 2.98

* * *

Please go through the items and note down their Vmax.
Biological target: acetylcholinesterase (AChE from Electrophorus electricus) (Electrophorus electricus)
Construct: purchased Sigma-Aldrich
Experiment: Kinetic characterization of AChE inhibition (Lineweaver–Burk)
Format: biochemical
Conditions: Lineweaver–Burk
No unit in the answer, only the number.

Input line: Which Vmax reading was recorded for the molecule C=C(C)[C@@H]1CC[C@]2(C(=O)O)CC[C@]3(C)[C@H](CC[C@@H]4[C@@]5(C)[C@@H](C(=O)O)C(=O)C(C)(C)[C@@H]5CC[C@]43C)[C@@H]12 [Compound 2, 3-oxo-Ceanothic Acid] ?
Output line: 0.0032

Input line: For C=C(C)[C@@H]1CC[C@]2(C(=O)O)CC[C@]3(C)[C@H](CC[C@@H]4[C@@]5(C)[C@@H](C(=O)O)[C@H](OCCCCBr)C(C)(C)[C@@H]5CC[C@]43C)[C@@H]12 [Compound 6, 3-(4-Bromobutoxy)-ceanothic Acid] then?
Output line: 0.0086

Input line: For C=C(C)[C@@H]1CC[C@]2(C(=O)O)CC[C@]3(C)[C@H](CC[C@@H]4[C@@]5(C)[C@@H](C(=O)O)[C@H](OC(=O)c6ccco6)C(C)(C)[C@@H]5CC[C@]43C)[C@@H]12 [Compound 7, 3-O-Furoyl-ceanothic Acid] then?
Output line: 0.0205

Input line: For C=C(C)[C@@H]1CC[C@]2(C(=O)OC)CC[C@]3(C)[C@H](CC[C@@H]4[C@@]5(C)[C@@H](C(=O)OC)[C@H](O)C(C)(C)[C@@H]5CC[C@]43C)[C@@H]12 [Compound 3, Ceanothic 2, 28-Dimethyl Ester] then?
Output line: 0.0133

* * *

Target: PAS of EeAChE (Electrophorus electricus, UniProt O42275)
Construct: purchased Sigma-Aldrich
Sequence (O42275 24-633): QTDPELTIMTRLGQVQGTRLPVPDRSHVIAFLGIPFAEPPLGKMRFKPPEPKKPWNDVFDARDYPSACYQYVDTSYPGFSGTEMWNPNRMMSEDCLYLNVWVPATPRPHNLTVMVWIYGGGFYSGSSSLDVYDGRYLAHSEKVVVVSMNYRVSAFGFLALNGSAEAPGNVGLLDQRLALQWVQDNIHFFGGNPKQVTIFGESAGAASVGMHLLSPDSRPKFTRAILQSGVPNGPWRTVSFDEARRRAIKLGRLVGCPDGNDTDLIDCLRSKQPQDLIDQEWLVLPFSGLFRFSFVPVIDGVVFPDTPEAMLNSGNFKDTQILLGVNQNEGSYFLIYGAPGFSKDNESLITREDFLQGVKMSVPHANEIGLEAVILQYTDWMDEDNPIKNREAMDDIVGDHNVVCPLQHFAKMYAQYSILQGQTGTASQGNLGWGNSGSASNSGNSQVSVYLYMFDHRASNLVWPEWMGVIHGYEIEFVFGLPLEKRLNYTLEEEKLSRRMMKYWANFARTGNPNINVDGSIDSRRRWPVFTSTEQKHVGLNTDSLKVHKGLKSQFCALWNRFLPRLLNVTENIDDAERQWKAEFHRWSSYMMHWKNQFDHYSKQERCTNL
Test: Propidium iodide displacement assay
Assay type: binding
Conditions: five units EeAChE, 1 µM propidium iodide solution, triplicate
If the reported % Displacement of Propidium Iodide (Mean ± SEM) equals or exceeds 30%, assign 1. If not, assign -1.

Input line: Can C=C(C)[C@@H]1CC[C@]2(C(=O)O)CC[C@]3(C)[C@H](CC[C@@H]4[C@@]5(C)[C@@H](C(=O)O)[C@H](OCCCCBr)C(C)(C)[C@@H]5CC[C@]43C)[C@@H]12 be said to have % Displacement of Propidium Iodide (Mean ± SEM) at or above 30%?
Output line: 1

Input line: For C=C(C)[C@@H]1CC[C@]2(C(=O)O)CC[C@]3(C)[C@H](CC[C@@H]4[C@@]5(C)[C@@H](C(=O)O)C(=O)C(C)(C)[C@@H]5CC[C@]43C)[C@@H]12 then?
Output line: -1

Input line: For C=C(C)[C@@H]1CC[C@]2(C(=O)OC)CC[C@]3(C)[C@H](CC[C@@H]4[C@@]5(C)[C@@H](C(=O)OC)[C@H](O)C(C)(C)[C@@H]5CC[C@]43C)[C@@H]12 then?
Output line: -1

Input line: For C=C(C)[C@@H]1CC[C@]2(C(=O)O)CC[C@]3(C)[C@H](CC[C@@H]4[C@@]5(C)[C@@H](C(=O)O)[C@H](O)C(C)(C)[C@@H]5CC[C@]43C)[C@@H]12 then?
Output line: -1

Input line: For C=C(C)[C@@H]1CC[C@]2(C(=O)O)CC[C@]3(C)[C@H](CC[C@@H]4[C@@]5(C)[C@@H](C(=O)O)[C@H](OC(=O)c6ccco6)C(C)(C)[C@@H]5CC[C@]43C)[C@@H]12 then?
Output line: -1
